- TARGET_SYSTEM: immunoproteasome LMP7/B5i subunit (Homo sapiens, UniProt P20618+P28062)
- EXPERIMENT_SUMMARY: Caliper-based proteasome enzymatic activity assay, LMP7
- MEASUREMENT_CONDITIONS: human recombinant immunoproteasome 0.3 nM, FAM-peptide substrate 1 μM, 3 h at rt
RECORDED_METRIC: IC50 (nM)

{"columns": ["SMILES_TEXT", "VALUE_QUALIFIER", "RESULT_VALUE"],
 "data": [
  ["CC(C)(C=C(C#N)C(=O)N1C[C@@H]2C[C@@H]2[C@@H]1COC(=O)N[C@@H](CCc1ccccc1)B(O)O)N1CCC(F)(F)C1", "=", 1.4],
  ["CN1CCN(C(C)(C)C=C(C#N)C(=O)N2CCC[C@@H]2COC(=O)N[C@@H](Cc2coc3ccccc23)B(O)O)CC1", "=", 2.5],
  ["CC(C)(C=C(C#N)C(=O)N1CCCC[C@@H]1COC(=O)N[C@@H](Cc1ccc(S(C)(=O)=O)cc1)B(O)O)N1CCC(F)(F)C1", "=", 2.2],
  ["CC(C)(C=C(C#N)C(=O)N1CCCC[C@@H]1COC(=O)N[C@@H](Cc1ccccc1)B(O)O)N1CCN(C2COC2)CC1", "=", 21],
  ["CC(C)(C=C(C#N)C(=O)N1CCCC[C@@H]1COC(=O)N[C@@H](Cc1ccc(Cl)cc1)B(O)O)N1CCC(F)(F)C1", "=", 2],
  ["C[C@H]1CC[C@H](COC(=O)N[C@@H](Cc2coc3ccccc23)B(O)O)N1C(=O)C(C#N)=CC(C)(C)N1CCOCC1", "=", 1.4],
  ["C=CC(=O)N1CCCC[C@@H]1COC(=O)N[C@@H](Cc1ccccc1)B(O)O", ">", 5000],
  ["CC(C)(C=C(C#N)C(=O)N1CCCC[C@@H]1COC(=O)N[C@@H](CCc1ccccc1)B(O)O)N1CCC(F)(F)C1", "=", 1.7],
  ["CC(C)(C=C(C#N)C(=O)N1CCC[C@@H]1COC(=O)N[C@@H](Cc1coc2ccccc12)B(O)O)N1CCC(F)(F)C1", "=", 0.5],
  ["COc1cccc(C[C@H](NC(=O)OC[C@H]2CCCCN2C(=O)C(C#N)=CC(C)(C)N2CCC(F)(F)C2)B(O)O)c1", "=", 2.7],
  ["CC(C)(C=C(C#N)C(=O)N1CCCC[C@@H]1COC(=O)N[C@@H](Cc1ccccc1)B(O)O)N1CCC(F)(F)CC1", "=", 12],
  ["CC(C)(C=C(C#N)C(=O)N1CCOC[C@@H]1COC(=O)N[C@@H](Cc1ccccc1)B(O)O)N1CCC(F)(F)C1", "=", 2],
  ["CC(C)C=C(C#N)C(=O)N1CCC[C@@H]1COCCC(=O)N[C@@H](Cc1ccccc1)B(O)O", "=", 79]
]}

* * *

- TARGET_SYSTEM: immunoproteasome LMP7/B5i subunit (Homo sapiens, UniProt P20618+P28062)
- EXPERIMENT_SUMMARY: Caliper-based proteasome enzymatic activity assay, LMP7
- MEASUREMENT_CONDITIONS: human recombinant immunoproteasome 0.3 nM, FAM-peptide substrate 1 μM, 3 h at rt
IC50 values for the compounds below.

{"columns": ["COMPOUND", "UNITS_LABEL", "IC50"],
 "data": [
  ["CC(C)(C=C(C#N)C(=O)N1CCCC[C@@H]1COC(=O)N[C@@H](Cc1cccc2ccccc12)B(O)O)N1CCC(F)(F)C1 [Example 106]", "nM", 5.2],
  ["CC(C)(C=C(C#N)C(=O)N1CCC[C@@H]1COC(=O)N[C@@H](Cc1ccccc1)B(O)O)N1CCC(F)(F)CC1 [Example 21]", "nM", 1.4],
  ["CC(C)(C=C(C#N)C(=O)N1CCC[C@]1(C)COC(=O)N[C@@H](Cc1ccccc1)B(O)O)N1CCC(F)(F)C1 [Example 85]", "nM", 2]
]}

* * *

- TARGET_SYSTEM: constitutive proteasome β5c unit (Homo sapiens, UniProt P20618+P28074)
- EXPERIMENT_SUMMARY: Caliper-based proteasome enzymatic activity assay, β5c
- MEASUREMENT_CONDITIONS: human recombinant constitutive proteasome 0.3 nM, FAM-peptide substrate 1 μM, 3 h at rt; read-out: β5c subunit IC50
pIC50: −log10 of the molar value.
Outcome label depends on pIC50 relative to 6: at/above gives 1.0, below gives 0.0.

{"columns": ["COMPOUND", "QUALITATIVE_LABEL"],
 "data": [
  ["CC(C)(C=C(C#N)C(=O)N1CCCC[C@@H]1COC(=O)N[C@@H](Cc1ccc(C#N)cc1)B(O)O)N1CCC(F)(F)C1 [Example 122]", 0.0],
  ["CC(C)C=C(C#N)C(=O)N1CCCC1CCC(=O)N[C@@H](Cc1ccccc1)B(O)O (single isomer, unassigned) [Example 4]", 1.0],
  ["C=CC(=O)N1CC(F)(F)C[C@@H]1COC(=O)N[C@@H](Cc1coc2ccccc12)B(O)O [Example 91]", 1.0],
  ["CC(C)(C=C(C#N)C(=O)N1C[C@@H]2C[C@@H]2[C@@H]1COC(=O)N[C@@H](Cc1coc2ccccc12)B(O)O)N1CCOCC1 [Example 51]", 1.0],
  ["CC(C)(C=C(C#N)C(=O)N1CCCC[C@@H]1COC(=O)N[C@@H](Cc1coc2ccccc12)B(O)O)N1CCOCC1 [Example 46]", 1.0],
  ["COc1cccc(C[C@H](NC(=O)OC[C@H]2CCCCN2C(=O)C(C#N)=CC(C)(C)N2CCC(F)(F)C2)B(O)O)c1 [Example 96]", 0.0],
  ["CC(C)(C=C(C#N)C(=O)N1CCC[C@@H]1COC(=O)N[C@@H](Cc1ccccc1)B(O)O)N1CCCCC1 [Example 20]", 0.0],
  ["CC(C)(C=C(C#N)C(=O)N1CCCC[C@@H]1COC(=O)N[C@@H](Cc1ccc(F)cc1)B(O)O)N1CCC(F)(F)C1 [Example 82]", 0.0],
  ["CN(C)C/C=C/C(=O)N1CCC[C@@H]1COC(=O)N[C@@H](Cc1coc2ccccc12)B(O)O [Example 49]", 1.0],
  ["CC(C)(C=C(C#N)C(=O)N1CCCCC[C@@H]1COC(=O)N[C@@H](Cc1coc2ccccc12)B(O)O)N1CCOCC1 [Example 63]", 1.0]
]}

* * *

- TARGET_SYSTEM: immunoproteasome LMP7/B5i subunit (Homo sapiens, UniProt P20618+P28062)
- EXPERIMENT_SUMMARY: Caliper-based proteasome enzymatic activity assay, LMP7
- Type: biochemical
- MEASUREMENT_CONDITIONS: human recombinant immunoproteasome 0.3 nM, FAM-peptide substrate 1 μM, 3 h at rt
pIC50: −log10 of the molar value.
Outcome label depends on pIC50 relative to 8: at/above gives 1.0, below gives 0.0.

{"columns": ["MOLECULE", "QUALITATIVE_LABEL"],
 "data": [
  ["CC(C)C=C(C#N)C(=O)N1CCCC1CCC(=O)N[C@@H](Cc1ccccc1)B(O)O (single isomer, unassigned) [Example 4]", 1.0],
  ["Cc1ccc(C[C@H](NC(=O)OC[C@H]2[C@H]3C[C@H]3CN2C(=O)C(C#N)=CC(C)(C)N2CCC(F)(F)C2)B(O)O)cc1 [Example 116]", 0.0],
  ["CC(C)C=C(C#N)C(=O)N1CCCC1CCC(=O)N[C@@H](Cc1ccccc1)B(O)O (single isomer, unassigned) [Example 3]", 0.0],
  ["CC(C)C=C(C#N)C(=O)N1CCCC[C@@H]1COC(=O)N[C@@H](Cc1ccccc1)B(O)O [Example 2]", 0.0],
  ["CC(C)(C=C(C#N)C(=O)N1C[C@@H]2C[C@@H]2[C@@H]1COC(=O)N[C@@H](Cc1ccccc1)B(O)O)N1CCC(F)(F)C1 [Example 74]", 1.0],
  ["CC(C)(C)C=C(C#N)C(=O)N1C[C@@H]2C[C@@H]2[C@@H]1COC(=O)N[C@@H](Cc1coc2ccccc12)B(O)O [Example 48]", 1.0],
  ["CC1(C=C(C#N)C(=O)N2C[C@@H]3C[C@@H]3[C@@H]2COC(=O)N[C@@H](Cc2ccc(F)cc2)B(O)O)CCOCC1 [Example 119]", 0.0],
  ["CC(C)(C)C=C(C#N)C(=O)N1CCOC[C@@H]1COC(=O)N[C@@H](Cc1ccccc1)B(O)O [Example 69]", 1.0],
  ["CC(C)C[C@H](NC(=O)OC[C@H]1CCCCN1C(=O)C(C#N)=CC(C)(C)N1CCC(F)(F)C1)B(O)O [Example 105]", 1.0]
]}

* * *

- TARGET_SYSTEM: immunoproteasome LPM2/β1i subunit (Homo sapiens, UniProt P28065+P40306)
- EXPERIMENT_SUMMARY: Caliper-based proteasome enzymatic activity assay, LMP2
- MEASUREMENT_CONDITIONS: human recombinant immunoproteasome 0.3 nM, FAM-peptide substrate 1 μM, 2 h at rt
pIC50: −log10 of the molar value.
RECORDED_METRIC: pIC50

{"columns": ["MOLECULE", "RECORDED_METRIC", "RESULT_VALUE"],
 "data": [
  ["C=CC(=O)N1CCC[C@@H]1COC(=O)N[C@@H](Cc1coc2ccccc12)B(O)O [Example 36]", "pIC50", "< 5.30"],
  ["CC(C)(C)C=C(C#N)C(=O)N1CCC[C@@H]1COC(=O)N[C@@H](Cc1ccccc1)B(O)O [Example 10]", "pIC50", "< 5.30"],
  ["CC(C)(C=C(C#N)C(=O)N1CCC[C@@H]1COC(=O)N[C@@H](Cc1coc2ccccc12)B(O)O)N1CCOCC1 [Example 40]", "pIC50", "< 5.30"],
  ["CC(C)(C=C(C#N)C(=O)N1CCCC[C@@H]1COC(=O)N[C@@H](Cc1ccccc1)B(O)O)N1CCCCC1 [Example 30]", "pIC50", "< 5.30"]
]}

Data credit: patent US11154563B2
